# TEST DESCRIPTION: human hepatoma cell viability loss – ATP luminescence, cytotoxicity control for P. falciparum antimalarial project, primary screen (AID 2303);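 further: 0% = DMSO wells and 100% = digitonin-killed cells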
# STUDY CONDITIONS: HepG2 viability, 24-48 h, at 10 µM, stronger effect = higher value
Assign inhibition to each entry below.
One number for each entry, in %.

> print(dat)
                                   compound  number
1  CCCCCCn1c(Sc2ccc(C#N)c([N+](=O)[O-])c2)nnc1-c1cccc(Cl)c1      17
2  NC(=O)c1cccc(C(=O)Nc2ccc(-c3cccc(-c4nc5ccc(F)cc5[nH]4)c3)cc2)c1      45
3    Oc1ccc(CN2CCC(NCc3cccc4ccccc34)CC2)cc1       8
4  CCC(C)(C)C1CCc2[nH]c3ccccc3c(=O)c2C1 (centres undefined)      16
5  CN(C)S(=O)(=O)c1ccc(N2C(=O)[C@@H]3[C@H](C2=O)[C@@]2(c4ccccc4)C(=O)[C@]3(c3ccccc3)C(c3ccccc3)=C2c2ccccc2)cc1     -10

# per-item lookup of inhibition; items listed below
1. CCCCCC(C)C(C)c1cc(O)c2c(c1)OC(C)(C)CC2(O)c1ccnn1C (centres undefined)
2. CC(=O)N[C@H](C(=O)Nc1ccc(-c2cccc(-c3nc4c(C)cccc4[nH]3)c2)cc1)C(C)C
3. O=C(/C=C/c1ccc(Cl)c(Cl)c1)NCCCCCN1CCC(NC(=S)Nc2cccc(Cl)c2)CC1
4. C#CC[C@@H](NC(N)=O)C(=O)O

Ans.
[20, 9, 24, 1]

# per-item lookup of inhibition; items listed below
1. COc1ccc(-c2cnc3[nH]cc(-c4ccc(C(=O)O)cc4)c3c2)cn1
2. CC(C)C[C@H](NC(=O)c1cc2ccccc2s1)C(=O)N[C@H]1CCN(Cc2ccc(I)c(OC3CCN(C)C3)c2)C1 (some centres undefined)

Ans.
35
99

* * *

# TEST DESCRIPTION: antimalarial activity against Dd2 strain (AID 2302);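 further: 0% = DMSO untreated growth and 100% = chloroquine plus artemisinin killed control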
# STUDY CONDITIONS: P. falciparum Dd2 in RBCs, LDH growth readout, 72 h; at 2 µM; stronger effect = higher value
Think of 60% as a floor: if growth inhibition stands on it or above, it is MET; beneath it, NOT MET.

> print(dat)
                                   compound  answer.label
1  O=C(/C=C/c1ccc(Cl)c(Cl)c1)NC1CCC(CN2CCC(c3coc4ccccc34)CC2)CC1 (centres undefined)       NOT MET

Qu. Given CCCNC(=O)C1CCN(C(c2ccc(Cl)cc2)c2ccc(Cl)cc2)CC1 , state whether its growth inhibition is at least 60%.
Ans. MET

Qu. Given Cc1cc(Nc2cccc(C(F)(F)F)c2)nc(N)n1 , state whether its growth inhibition is at least 60%.
Ans. NOT MET

Qu. Given CCCCCCOc1ccc(N2C(N)=NC(N)=NC2(C)C)cc1 , state whether its growth inhibition is at least 60%.
Ans. NOT MET

Qu. Given COc1cc(NC(=O)/C=C/c2ccc(-c3ccccc3)cc2)ccc1OCCN(C(C)C)C(C)C , state whether its growth inhibition is at least 60%.
Ans. MET

* * *

# TEST DESCRIPTION: inhibition of 3D7 malaria parasite growth – strain 3D7 (AID 2306);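 further: 0% = DMSO wells and 100% = chloroquine plus artemisinin control wells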
# STUDY CONDITIONS: P. falciparum 3D7 erythrocytic growth, LDH absorbance, 72 h; at 2 µM; stronger effect = higher value
Assign growth inhibition to each entry below.
One number for each entry, in %.

# per-item lookup of growth inhibition; items listed below
1. O=C(Nc1ccccc1)c1nn(CCCN2CCC(N3CCCC3)CC2)cc1-c1ccc(Cl)c(Cl)c1
2. O=C(C=Cc1cn(-c2ccccc2)nc1-c1ccccc1)N1CCN(c2ccncc2)CC1
3. Oc1ccc(CCNc2nc(NCc3ccccc3-c3ccc(C(F)(F)F)cc3)nc(NC3CCNCC3)n2)cc1
4. COc1ccc(C2CC(=O)C3=C(C2)NC(C)=C(C(=O)OC2CCCC2)C3c2cccc(O)c2)cc1 (stereo not given)
5. CC(C)N1CCN(C(CN2CCN(CCCOc3ccccc3-c3ccccc3)CC2)c2ccc(F)cc2)CC1 (stereo not given)

Ans.
[103, 90, 97, 88, 100]

* * *

# ASSAYED TARGET: L-lactate dehydrogenase (Plasmodium falciparum (isolate CDC / Honduras)) (UniProt Q27743)
# Sequence (Q27743 whole entry, looked up): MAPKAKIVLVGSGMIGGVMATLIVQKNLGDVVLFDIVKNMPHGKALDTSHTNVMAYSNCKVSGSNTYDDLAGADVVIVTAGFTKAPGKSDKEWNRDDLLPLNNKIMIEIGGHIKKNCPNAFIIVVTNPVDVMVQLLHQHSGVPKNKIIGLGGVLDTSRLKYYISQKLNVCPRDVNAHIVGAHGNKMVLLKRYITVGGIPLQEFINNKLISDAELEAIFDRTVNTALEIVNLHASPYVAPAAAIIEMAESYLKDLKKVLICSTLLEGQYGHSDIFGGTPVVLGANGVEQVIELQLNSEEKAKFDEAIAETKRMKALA
# TEST DESCRIPTION: PfLDH activity inhibition – cell lysate, 3D7 strain, counter-screen for P. falciparum growth inhibition project (AID 2304);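 further: 0% = vehicle and 100% = reference inhibitor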
# STUDY CONDITIONS: P. falciparum 3D7 crude extract, LDH APAD/NBT absorbance; at 2 µM; stronger effect = higher value
READOUT LABEL: inhibition (%)
One number for each entry, in %.

> print(dat)
                                smiles.repr  readout.label  number
1  O=C(Nc1cccc(CN2CCCN(Cc3ccc(F)cc3)CC2)c1)c1ccc(Cl)c(Cl)c1     inhibition       7
2  COc1ccccc1C(=O)Nc1ccc(Nc2nc(C)cc(N(C)C)n2)cc1     inhibition       3
3  CCc1cn2c3c(cc(C(=O)N[C@@H](Cc4ccccc4)[C@H](O)CNC4CCC4)cc13)N(C)S(=O)(=O)CC2     inhibition      -3
4  CS(=O)(=O)c1ccc(-c2cncc(Nc3cccc([N+](=O)[O-])c3)c2)cc1     inhibition      -1

Kindly review the next compound as well.
Qu. Recorded inhibition for CC(C)NCc1ccc(OCc2cccc(COc3ccc(CNC(C)C)cc3I)c2)c(I)c1 with L-lactate dehydrogenase (Plasmodium falciparum (isolate CDC / Honduras)) (UniProt Q27743), please?
Ans. 6

* * *

# TEST DESCRIPTION: inhibition of 3D7 malaria parasite growth – strain 3D7 (AID 2306);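 further: 0% = DMSO wells and 100% = chloroquine plus artemisinin control wells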
# STUDY CONDITIONS: P. falciparum 3D7 erythrocytic growth, LDH absorbance, 72 h; at 2 µM; stronger effect = higher value
READOUT LABEL: growth inhibition (%)
Numbers only, in %.

Examples from the recorded data:
> print(dat)
                                   compound  number
1  COc1ccccc1CNc1ncc(-c2ccsc2)c(-c2nccs2)n1      91
2  CCN(CC)CC(O)c1cc(-c2ccc(OC)cc2)nc2cc(Cl)ccc12 (centres undefined)      99
3  O=C(Nc1ccc(-c2cccc(-c3nc4ccccc4[nH]3)c2)cc1)Nc1ccsc1     101

# per-item lookup of growth inhibition; items listed below
1. Cc1ccc(NC(=O)Nc2cccc(Cl)c2)cc1-c1ccc(C(=O)Nc2ccncc2)cc1
2. O=C(Cc1cnc[nH]1)Nc1cccc(-c2cccc(-c3nc4ccc(C(F)(F)F)cc4[nH]3)c2)c1
3. CN1CCN(c2ccc(Nc3c(C(N)=O)cnc4cc(-c5ccoc5)ccc34)cc2)CC1
4. Cc1cccc2[nH]c(-c3cccc(-c4cccc(CN5CCC(CO)CC5)c4)c3)nc12
5. COc1ccc(CNC(=O)NC2CCN(c3ccnc(Nc4ccc(F)cc4)n3)C2)cc1 (centres undefined)
6. CCN(CC)CCN(Cc1ccc(-c2ccc(C(F)(F)F)cc2)cc1)C(=O)Cn1c(SCc2ccc(F)cc2)nc(=O)c2sccc21
7. COc1cc2nc(N3CCC(CNC(=O)c4ccc(-c5cccc(C#N)c5)cc4)CC3)nc(N)c2cc1OC

Ans.
1: 97; 2: 102; 3: 101; 4: 101; 5: 91; 6: 101; 7: 100

# per-item lookup of growth inhibition; items listed below
1. CCN(Cc1ccccc1)C1CCN(Cc2cc(Br)ccc2O)CC1
2. FC(F)(F)c1ccc2nccc(NCc3ccccc3)c2c1
3. COc1cc(CCN(C)Cc2ccc(OC)c(OC)c2)ccc1NC(=O)c1cccc2c(=O)c3cccc(F)c3[nH]c12
4. O=S1N=C(NCCCN(Cc2cccs2)c2ccccn2)C(NCc2ccccc2)=N1 (centres undefined)
5. O=C(NCc1cccc(F)c1)c1ccc(O)c(-c2cc(Cl)cc(Cl)c2)c1
6. O=S(=O)(NCCN1CCCC1)c1ccc(-c2ccc(CNCc3ccccc3)cc2)cc1F
7. c1ccc(CCNCc2ccc(-c3ccc(CNCc4ccc5c(c4)OCO5)cc3)nc2)cc1

Ans.
1. 97
2. 93
3. 102
4. 92
5. 99
6. 83
7. 94

# per-item lookup of growth inhibition; items listed below
1. CCc1cn2c3c(cc(C(=O)N[C@@H](Cc4ccccc4)[C@H](O)CNC(C)C)cc13)N(C)S(=O)(=O)C2
2. O=C(Nc1ccc2c(ccn2C2CCCN(Cc3cc(F)cc(F)c3F)CC2)c1)c1ccco1 (centres undefined)

Ans.
1. 98
2. 89

* * *

Assign growth inhibition to each entry below.
# TEST DESCRIPTION: inhibition of 3D7 malaria parasite growth – strain 3D7 (AID 2306);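 further: 0% = DMSO wells and 100% = chloroquine plus artemisinin control wells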
# STUDY CONDITIONS: P. falciparum 3D7 erythrocytic growth, LDH absorbance, 72 h; at 2 µM; stronger effect = higher value
Activity calls are given as the source filed them. How the calls were made is not given here.

Examples from the recorded data:
> print(dat)
                                   compound      readout.label        result
1  Cc1ccc(Nc2nc3cc(Nc4ccnc(Nc5ccc(CS(C)(=O)=O)cc5)n4)ccc3o2)cc1  growth inhibition  99% (active)
2    CCCOc1ccc(CCCON2C(N)=NC(N)=NC2(C)C)cc1  growth inhibition  95% (active)

# per-item lookup of growth inhibition; items listed below
1. O=C(NC1CCCCC1)C1CCCN(C(=O)c2ccc(O)c(-c3ccc(Cl)c(Cl)c3)c2)C1 (stereo not given)
2. COc1ccc(Cc2cccc(C(C(=O)NCc3cc(Cl)cc(Cl)c3)N3CCN(C)CC3)c2)cc1 (stereo not given)
3. COc1cc(NCCCNCc2cn(Cc3cc(Br)cc(Br)c3)c3ccccc23)nc2ccccc12

Ans.
89% (active)
101% (active)
100% (active)
